tested on: 429239-143-T-J1-PDC complex spheroid viability; assay: Anticancer human tumor 429239-143-T-J1-PDC patient-derived small cell lung carcinoma cell line growth inhibition [POLQ]; details: second compound 3.16 µM; first compound 0.1 µM; hits give low values;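 further: luminescence signal used as surrogate measure of viable cells; spheroids exposed to compounds for seven days before readout; 100% = DMSO vehicle control viability as luminescence relative to vehicle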

# compound, viability, T/C
records = [
    ("CNCc1ccc(-c2[nH]c3cc(F)cc4c3c2CCNC4=O)cc1 + COC1C(OC(N)=O)C(O)C(Oc2ccc3c(O)c(NC(=O)c4ccc(O)c(CC=C(C)C)c4)c(=O)oc3c2C)OC1(C)C", "88.3%"),
    ("O=C(Nc1ccc(O)c(NS(=O)(=O)c2ccc(F)cc2)c1)c1ccc(-c2ccccc2)cc1 + Nc1ccc(C#CCN(C(=O)Cc2ncc(C(F)(F)F)cc2C(F)(F)F)c2ccc(F)cc2)nn1", "103%"),
    ("COc1ccc([C@@H](O)c2cc(-c3ncnc4cc(N5CCOCC5)ccc34)c(F)cc2Cl)nn1 + COC1C(OC(N)=O)C(O)C(Oc2ccc3c(O)c(NC(=O)c4ccc(O)c(CC=C(C)C)c4)c(=O)oc3c2C)OC1(C)C", "102%"),
    ("CC1COCCN1c1cc(C2(S(C)(=N)=O)CC2)nc(-c2ccnc3[nH]ccc23)n1 (stereo unspecified) + COC1C(OC(N)=O)C(O)C(Oc2ccc3c(O)c(NC(=O)c4ccc(O)c(CC=C(C)C)c4)c(=O)oc3c2C)OC1(C)C", "109%"),
    ("O=C(Nc1ccc(O)c(NS(=O)(=O)c2ccc(F)cc2)c1)c1ccc(-c2ccccc2)cc1 + Cc1cccc(N(C)C(=O)C2C(O)CCN2c2nc(C)cc(C(F)(F)F)c2C#N)c1", "106%"),
    ("O=C(c1cc(Cc2n[nH]c(=O)c3ccccc23)ccc1F)N1CCN(C(=O)C2CC2)CC1 + Nc1ccc(C#CCN(C(=O)Cc2ncc(C(F)(F)F)cc2C(F)(F)F)c2ccc(F)cc2)nn1", "93.4%"),
    ("O=c1[nH]cc(F)c(=O)[nH]1 + Cc1cccc(N(C)C(=O)C2C(O)CCN2c2nc(C)cc(C(F)(F)F)c2C#N)c1", "97.2%"),
    ("CC[C@@]1(O)C(=O)OCc2c1cc1n(c2=O)Cc2cc3c(CN(C)C)c(O)ccc3nc2-1 + Nc1ccc(C#CCN(C(=O)Cc2ncc(C(F)(F)F)cc2C(F)(F)F)c2ccc(F)cc2)nn1", "5.18%"),
    ("CC[C@@]1(O)C(=O)OCc2c1cc1n(c2=O)Cc2cc3c(CN(C)C)c(O)ccc3nc2-1 + Cc1cccc(N(C)C(=O)C2C(O)CCN2c2nc(C)cc(C(F)(F)F)c2C#N)c1", "18.9%"),
    ("COc1cccc2c1C(=O)c1c(O)c3c(c(O)c1C2=O)CC(O)(C(=O)CO)CC3OC1CC(N)C(O)C(C)O1 (stereo unspecified) + Cc1cccc(N(C)C(=O)C2C(O)CCN2c2nc(C)cc(C(F)(F)F)c2C#N)c1", "13.6%"),
    ("CC[C@@]1(O)C(=O)OCc2c1cc1n(c2=O)Cc2cc3c(CN(C)C)c(O)ccc3nc2-1 + COC1C(OC(N)=O)C(O)C(Oc2ccc3c(O)c(NC(=O)c4ccc(O)c(CC=C(C)C)c4)c(=O)oc3c2C)OC1(C)C", "18.4%"),
]
